- method_summary: In vitro binding affinity against glycine receptor binding site using [3H]- Glycine as radioligand on rat cortical synaptosomal membranes
measured_metric: IC50 (nM)
Give the quantity in nM, number only.

CN1CCc2c([N+](=O)[O-])cc3nc(O)c(O)nc3c2C1 = 370

Please find the next compound below.
Report measured IC50; entry is "CCc1c([N+](=O)[O-])cc2nc(O)c(O)nc2c1CN(C)CC(=O)O"
470

----------
- method_summary: Solubility was measured in 50 mM phosphate buffer at pH 7.4
- Type: physicochemical
measured_metric: log10 of solubility (log10 of the value in µg/mL)
Units before log transform: µg/mL; reported quantity: solubility; transform: log10.

CCc1c([N+](=O)[O-])cc2nc(O)c(O)nc2c1CN(C)CC(=O)O = 2.62

Please find the next molecule below.
Report measured log10 of solubility; entry is "C=Cc1c(Br)cc2nc(O)c(O)nc2c1CN(C)CC(=O)O"
2.23

----------
- system_under_test: Glutamate receptor ionotropic, AMPA (Rattus norvegicus, UniProt P19490+P19491+P19492+P19493)
- method_summary: In vitro binding affinity against Ionotropic glutamate receptor AMPA binding site using [3H]- AMPA as radioligand on rat cortical synaptosomal membranes
measured_metric: pIC50
Scale: pIC50 equals -log10([C]), with [C] in mol/L.

CCOC(=O)CN(C)Cc1c(CC)c([N+](=O)[O-])cc2nc(O)c(O)nc12 = 5.80
C=Cc1c(Br)cc2nc(O)c(O)nc2c1CN(C)CC(=O)O = 5.93
CCc1c(Br)cc2nc(O)c(O)nc2c1CN(C)CC(=O)O = 5.63

Please find the next compound below.
Report measured pIC50; entry is "CCc1c([N+](=O)[O-])cc2nc(O)c(O)nc2c1CN(C)CC(=O)O"
6.85

----------
- method_summary: Solubility was measured in 50 mM phosphate buffer at pH 7.4
- Format: physicochemical
Overview of reported solubility across a group of molecules:
Give the quantity in µg/mL, number only.

Report measured solubility; entry is "CCOC(=O)CN(C)Cc1c(CC)c([N+](=O)[O-])cc2nc(O)c(O)nc12"
150

Report measured solubility; entry is "CCc1c(Br)cc2nc(O)c(O)nc2c1CN(C)CC(=O)O"
140

Report measured solubility; entry is "CN1CCc2c([N+](=O)[O-])cc3nc(O)c(O)nc3c2C1"
8.6

Source: ChEMBL document CHEMBL1132249
